test system: A2780; experiment: Antitumor activity against human A2780 cells; assay type: functional, cell-based
Experimental Readout: IC50 (nM)
// return numeric value only (unit: nM, not printed)

Consider the molecule "COc1ccc(CCc2cc(OC)c(OC)c(OC)c2)cc1O" and give its measured IC50.
420

###

test system: NCI-H460; assay: Antiproliferative activity against human NCI-H460 cells assessed as inhibition of cell growth; format: functional, cell-based
Experimental Readout: pIC50
The value called pIC50 is obtained by taking minus log10 of the concentration in mol/L.

Consider the compound "COc1ccc(N(C)c2nc(C)nc3ccccc23)cc1NC(=O)CCC(=O)NO" and give its measured pIC50.
5.98

###

tested on: MDA-MB-231; assay: Antiproliferative activity against human MDA-MB-231 cells assessed as reduction in cell viability by MTT assay; format: functional, cell-based
Provide the recorded pIC50 for the entries that follow.
The value called pIC50 is obtained by taking minus log10 of the concentration in mol/L.

Checklist item: pIC50 tested on MDA-MB-231, entry "COc1ccc(CN(C(=O)CCC(=O)Nc2ccc(C)cc2)c2cc(OC)c(OC)c(OC)c2)cc1" , value?
5.09

Checklist item: pIC50 tested on MDA-MB-231, entry "COc1ccc(CN(C(=O)CCC(=O)Nc2ccc(Cl)cc2)c2cc(OC)c(OC)c(OC)c2)cc1" , value?
4.65

Checklist item: pIC50 tested on MDA-MB-231, entry "COc1ccc(CN(C(=O)CCC(=O)Nc2cccc(F)c2)c2cc(OC)c(OC)c(OC)c2)cc1" , value?
4.25

Checklist item: pIC50 tested on MDA-MB-231, entry "COc1ccc(CN(C(=O)CCC(=O)Nc2ccc(F)cc2)c2cc(OC)c(OC)c(OC)c2)cc1" , value?
4.62

Checklist item: pIC50 tested on MDA-MB-231, entry "COc1ccc(CN(C(=O)CCC(=O)Nc2ccccc2Cl)c2cc(OC)c(OC)c(OC)c2)cc1" , value?
4.14

Checklist item: pIC50 tested on MDA-MB-231, entry "COc1ccc(CN(C(=O)CCC(=O)Nc2cccc(Cl)c2)c2cc(OC)c(OC)c(OC)c2)cc1" , value?
4.32

Checklist item: pIC50 tested on MDA-MB-231, entry "COc1ccc(CN(C(=O)CCC(=O)Nc2cccc(C)c2)c2cc(OC)c(OC)c(OC)c2)cc1" , value?
4.78
